// provenance: patent US11718604B2

Listed below: pest or weed control at 35 g/ha values for each entry.
- Test system: CYPES: yellow nutsedge (Cyperus esculentus)
- Procedure details: Post-emergent herbicidal test, yellow nutsedge
- Type: in vivo
- Details: post-emergence, 336 h, 35 g ai/ha, 14 days after application, read-out: Visual Growth Reduction (%) 14 Days After Application CYPES
- Text: Post-Emergent Test: Seeds or nutlets of the desired test plant species were planted in Sun Gro Metro-Mix® 360 planting mixture, which typically has a pH of 6.0 to 6.8 and an organic matter content of about 30 percent, in plastic pots with a surface area of 64 square centimeters (cm^2). When required to ensure good germination and healthy plants, a fungicide treatment and/or other chemical or physical treatment was applied. […]
Give just the number in %; leave the unit off.

Previously resolved entries follow.
Entry Nc1c(F)c(-c2ccc(I)c3c2OC(F)(F)O3)nc(C(=O)O)c1Cl [Compound 12] under CYPES: yellow nutsedge (Cyperus esculentus) had pest or weed control at 35 g/ha of 0

Entry COC(=O)c1nc(-c2ccc(F)c3c2OCO3)c(F)c(N)c1Cl [Compound 15] under CYPES: yellow nutsedge (Cyperus esculentus) had pest or weed control at 35 g/ha of 0

Entry Nc1c(F)c(-c2ccc(Cl)c3c2OC(F)(F)O3)nc(C(=O)O)c1Cl [Compound 14] under CYPES: yellow nutsedge (Cyperus esculentus) had pest or weed control at 35 g/ha of 10

Now, please, on to the next compound.
Entry Nc1c(F)c(-c2cccc3c2OCO3)nc(C(=O)O)c1Cl [Compound 3] under CYPES: yellow nutsedge (Cyperus esculentus) had pest or weed control at 35 g/ha of 0
